biological target: human aromatase (Homo sapiens, UniProt P11511); construct: purchased BioVision; assay: Aromatase (CYP19A) Inhibitor Screening Kit (Fluorimetric), BioVision; assay type: biochemical; details: experimental validation of 3D-QSAR model; read-out: IC50 (aromatase, Table 5)
Sequence (P11511 whole entry): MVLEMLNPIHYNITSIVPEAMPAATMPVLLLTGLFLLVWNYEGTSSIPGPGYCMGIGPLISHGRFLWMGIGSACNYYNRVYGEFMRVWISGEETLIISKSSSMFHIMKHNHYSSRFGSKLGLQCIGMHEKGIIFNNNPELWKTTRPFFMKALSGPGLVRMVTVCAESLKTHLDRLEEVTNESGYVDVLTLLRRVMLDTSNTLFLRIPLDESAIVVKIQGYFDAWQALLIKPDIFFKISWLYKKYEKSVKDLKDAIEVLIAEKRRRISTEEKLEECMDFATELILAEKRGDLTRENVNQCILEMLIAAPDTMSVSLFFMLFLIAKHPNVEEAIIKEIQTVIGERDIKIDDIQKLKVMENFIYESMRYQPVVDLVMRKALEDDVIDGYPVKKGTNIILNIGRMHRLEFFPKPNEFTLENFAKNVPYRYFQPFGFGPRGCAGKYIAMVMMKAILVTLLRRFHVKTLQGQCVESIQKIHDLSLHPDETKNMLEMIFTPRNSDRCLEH
resultType: IC50 (µM)
Answers are plain numbers, in µM.

[
  {
    "molecule": "O=C(CSc1nnc(-c2ccc3nc(-c4ccc(O)cc4)[nH]c3c2)o1)N1CCN(Cc2ccc(Cl)cc2)CC1 [5b]",
    "observedMeasurement": 1.48
  }
]

Kindly consider the entry below.
Query: Item O=C(CSc1nnc(-c2ccc3nc(-c4ccc(O)cc4)[nH]c3c2)o1)N1CCN(Cc2ccc(F)cc2)CC1 [5c] : provide IC50
Reply: 2.51

====

system: MCF-7 (human breast adenocarcinoma cell line); experiment: MTT cytotoxicity assay, MCF-7; format: cell-based; conditions: Homo sapiens, MCF7, MTT assay, mean of four independent studies; read-out: IC50 against MCF-7
resultType: pIC50
Answers are plain numbers, as −log10 of the molar value.

Respectfully, I request pIC50 for each entry included below.
1. O=C(CSc1nnc(-c2ccc3nc(-c4ccc(O)cc4)[nH]c3c2)o1)N1CCN(Cc2ccccc2)CC1
2. CCOc1ccc(-c2nc3ccc(-c4nnc(SCC(=O)N5CCN(Cc6ccc(F)cc6)CC5)o4)cc3[nH]2)cc1

Reply:
[5.00, 5.04]

====

For each of the compounds below, state its melting point.

// below: answered compounds
[
  {
    "molSmiles": "COc1ccc(-c2nc3ccc(-c4nnc(SCC(=O)N5CCN(Cc6ccccc6)CC5)o4)cc3[nH]2)cc1",
    "observedMeasurement": "172.6 to 174.8 °C"
  },
  {
    "molSmiles": "COc1ccc(-c2nc3ccc(-c4nnc(SCC(=O)N5CCN(Cc6ccc(Cl)cc6)CC5)o4)cc3[nH]2)cc1",
    "observedMeasurement": "138.2 to 140.1 °C"
  },
  {
    "molSmiles": "O=C(CSc1nnc(-c2ccc3nc(-c4ccc(O)cc4)[nH]c3c2)o1)N1CCN(Cc2ccc(Cl)cc2)CC1",
    "observedMeasurement": "155.5 to 157.4 °C"
  }
]

Respectfully, I request melting point for each entry included below.
1. CCOc1ccc(-c2nc3ccc(-c4nnc(SCC(=O)N5CCN(Cc6ccc(F)cc6)CC5)o4)cc3[nH]2)cc1
2. O=C(CSc1nnc(-c2ccc3nc(-c4ccc(O)cc4)[nH]c3c2)o1)N1CCN(Cc2ccc(F)cc2)CC1

Reply:
1. 189.9 to 191.4 °C
2. > 400 °C

Respectfully, I request melting point for each entry included below.
1. O=C(CSc1nnc(-c2ccc3nc(-c4ccc(O)cc4)[nH]c3c2)o1)N1CCN(Cc2ccccc2)CC1
2. COc1ccc(-c2nc3ccc(-c4nnc(SCC(=O)N5CCN(Cc6ccc(F)cc6)CC5)o4)cc3[nH]2)cc1
3. CCOc1ccc(-c2nc3ccc(-c4nnc(SCC(=O)N5CCN(Cc6ccccc6)CC5)o4)cc3[nH]2)cc1
4. CCOc1ccc(-c2nc3ccc(-c4nnc(SCC(=O)N5CCN(Cc6ccc(Cl)cc6)CC5)o4)cc3[nH]2)cc1

Reply:
1: 266.5 to 267.9 °C; 2: 133.4 to 135.8 °C; 3: 184.4 to 186.8 °C; 4: 177.5 to 178.4 °C
